System: OVCAR-4 ovarian
Protocol notes: NCI tumour cell line growth inhibition, 48 h
Below, each entry is listed with its recorded TGI.

These solved cases illustrate the format of a correct answer.
1) Cc1nc(C(N)=S)sc1C(=O)C/C(=N/N)C(=O)Nc1cccc(Cl)c1C = > 100 µM
2) Cc1c2c(OCCCCN3CCN(c4ncccn4)CC3)nn(C)c(=O)c2c(C)n1-c1ccccc1 = 39.1 µM
3) C[N+]1(C)C/C(=C\c2ccncc2)C(=O)/C(=C/c2ccncc2)C1 = > 100 µM
4) COc1ccc2nc3cc(Cl)ccc3c(NCCNCCCNC(=O)c3cc(-c4ccccc4)nc4ccccc34)c2c1 = > 100 µM
5) Cc1ccc(S(=O)(=O)N=Nc2c(O)[nH]c3c(Cl)cc(Cl)cc23)cc1 = > 100 µM

Q: Item under review: COc1cc(Br)c(C=Nc2cccc3ccc(OS(=O)(=O)c4cccc([N+](=O)[O-])c4)cc23)cc1OC . Reported TGI?
Ans: > 100 µM

Q: Same read-out for C[N+](C)(C)c1ncnc2c1ncn2C1CCCCO1 (stereo not given) ?
Ans: > 100 µM

Q: Now consider COc1cc(C2S/C(=C/c3ccccc3)C(=O)N2c2ccc(Cl)c(Cl)c2)cc(OC)c1OC (stereo not given) .
Ans: > 100 µM

Q: Note, next up: COc1cc(/C=C2/N=C(c3ccccc3)N(C3=NNC4(C(=O)N3)c3ccccc3-c3ccccc34)NC2=O)ccc1O
Ans: 62.1 µg/mL

Q: Queued: O=C1Nc2cccc3cc(NCC(O)CCl)cc1c23 (stereo not given)
Ans: > 100 µM

----------
Tested on: MALME-3M melanoma
Protocol notes: NCI tumour cell line growth inhibition, 48 h
As shown below, each of these molecules has a reported GI50 value.

// worked examples, GI50 included
1. C[C@]12CC[C@@H]3c4ccc(O)cc4C(O)C[C@H]3[C@@H]1CCC2=O (some centres undefined) = > 100000 nM
2. CCN(CC)CCCC(C)Nc1c2ccc(C)cc2nc2ccc(OC)cc12 (centres undefined) = 1730 nM
3. COC(=O)CCCCCN=Cc1c(O)c(O)c(C(C)C)c2cc(C)c(-c3c(C)cc4c(C(C)C)c(O)c(O)c(C=NCCCCCC(=O)OC)c4c3O)c(O)c12 = 2450 nM

Q: Find GI50 (MALME-3M melanoma) for the entry O=C1CCCN1CC#CCN1CCCC1
Ans: > 100000 nM

----------
System: NCI-H23 lung
Protocol notes: NCI tumour cell line growth inhibition, 48 h
Metric name: TGI (µM)
Express your answer in µM, writing the number without its unit.

1) Cc1c2c(OCCCCN3CCN(c4ncccn4)CC3)nn(C)c(=O)c2c(C)n1-c1ccccc1 = 37

Consider the additional compound presented here.
Q: Could you tell me which TGI is on file for C[C@]12CC[C@H](O)CC1=CC[C@@H]1[C@@H]2CC[C@]2(C)/C(=N/OCCN3CCCC3)CC[C@@H]12 ?
Ans: 27.1

----------
Tested on: SNB-75 CNS
Protocol notes: NCI tumour cell line growth inhibition, 48 h
Here, each record is paired with measured TGI data.

1. CCOC(=O)C(=O)Nc1c(C(C)C)cccc1C(C)C = > 100 µM
2. O=[N+]([O-])c1nccn1COCCBr = > 100 µM
3. COc1cc(/C=N/Nc2nnc3c4ccccc4c4ncccc4c3n2)cc(OC)c1OC = > 10 µM

Q: Quick one: TGI of Cc1c2ccc(N(C)c3ccnc(Nc4cccc(S(N)(=O)=O)c4)n3)cc2nn1C ?
Ans: > 22.9 µM

Q: What do we get for COc1ccc(C(=O)N2c3ccccc3Sc3ccccc32)c(C(F)(F)F)c1 ?
Ans: > 100 µM

----------
Test system: NCI-H226 lung
Protocol notes: NCI tumour cell line growth inhibition, 48 h
TGI overview

1. O=c1[nH]c2cc3[nH]c4ncccc4c(=O)c3cc2[nH]1 = > 10 µM
2. CCOC(=O)C(/C=N\C(=S)Nc1ccc(OCC)cc1)=C(/O)c1ccccc1 = > 100 µM
3. Cc1sc2ccccc2[n+]1CCC(=O)O = > 100 µM
4. COc1cc(/C=N/Nc2nnc3c4ccccc4c4ncccc4c3n2)cc(OC)c1OC = 9.12 µM

Q: # lookup: TGI of CC(C)(C)OC[C@H](O)CC#N
Ans: > 100 µM

----------
Test system: NCI-H226 lung
Protocol notes: NCI tumour cell line growth inhibition, 48 h
In this section we review reported TGI values for a set of compounds.

Worked set:
1) CC1(COS(=O)(=O)OCC2(C)COS(=O)(=O)OC2)COS(=O)(=O)OC1 = > 96.8 µM
2) CC(C)[C@H]1C(=O)N[C@@H](CCCN=C(N)N)C(=O)NCC(=O)N[C@@H](CC(=O)O)C(=O)N[C@H](Cc2ccccc2)C(=O)N1C = > 100 µM
3) CSC1=NS(=O)(=O)c2cc(C(=O)NN(C)C(=O)c3cc4c(cc3Cl)SC(SC)=NS4(=O)=O)c(Cl)cc2S1 = > 10 µM

Q: Recorded TGI of N.N.N.N.N.N.O=N[O-].[Br-].[Co+3].[Co+3].[OH3+].[OH3+] , please.
Ans: > 100 µM

Q: [N-]=[N+]=Nc1ccc(CNc2cc(=O)[nH]c(=O)[nH]2)cc1 , same question.
Ans: > 100 µM

Q: Entry to check: COc1ccc(/C=C2\N=C(c3ccccc3)N(C3Nc4cc5c(cc4S3)NC(N3C(=O)/C(=C/c4ccc(OC)cc4)N=C3c3ccccc3)S5)C2=O)cc1 (stereo not given)
Ans: > 100 µM

Q: Also, CCOC(=O)C(CS)NC(=O)CCCCCCCC(=O)NC(CS)C(=O)OCC (stereo not given) please.
Ans: > 100 µM

Q: Now try CC(=O)O[C@H]1C(=O)[C@@]2(C)[C@H]([C@H](OC(=O)c3ccccc3)[C@]3(O)C[C@H](OC(=O)[C@H](O)[C@@H](NC(=O)CC(C)(C)C)c4ccccc4)C(C)=C1C3(C)C)C1(OC(C)=O)CO[C@@H]1C[C@@H]2O (stereo not given in full) .
Ans: > 5.23 µM

Q: Try this compound next: Cc1cc(=O)oc2cc(O)ccc12
Ans: > 100 µM

Q: Same read-out for COC(=O)C1=C(CS(=O)c2ccccc2[N+](=O)[O-])ON(C)C1c1ccccc1 (stereo not given) ?
Ans: > 100 µM

----------
System: K-562 leukemia
Protocol notes: NCI tumour cell line growth inhibition, 48 h
Metric name: TGI

1. CC(C)OP(=O)(OC(C)C)C(C(C)C)N(C)/C(F)=N/C(F)(F)F (stereo unspecified) = > 100 µM

Q: Form entry - test system: K-562 leukemia; read-out: TGI; molecule: Cn1c(=O)c2c(ncn2CN2CCN(Cn3cnc4c3c(=O)n(C)c(=O)n4C)CC2)n(C)c1=O
Ans: > 100 µM

Q: Another molecule to check: COc1ccc(/C=C2\C(=O)N(C(=O)Cc3ccccc3)N=C2C)cc1OC
Ans: > 100 µM

Q: Lookup O=C(NCc1ccc(Cl)cc1)c1cc2sccc2nc1C(F)(F)F
Ans: > 100 µM

Q: Please do the same for Clc1ccc(N=c2oc3ccccc3cc2-c2nc3ccccc3[nH]2)c(Cl)c1 as well.
Ans: > 100 µM

Q: Same again, this time with Cc1c2ccc(N(C)c3ccnc(Nc4cccc(S(N)(=O)=O)c4)n3)cc2nn1C
Ans: > 25 µM

Q: Follow-up item: CC(C)[C@H]1C(=O)N[C@@H](CCCN=C(N)N)C(=O)NCC(=O)N[C@@H](CC(=O)O)C(=O)N[C@H](Cc2ccccc2)C(=O)N1C
Ans: > 100 µM

Q: Can you handle COC(=O)[C@@]12CCCC(=O)[C@@H]1[C@H]1CCCC[C@H]12 next?
Ans: > 100 µM

Q: What about this molecule? CN=C1SC(=Nc2ccc(N(C)C)cc2)N1C
Ans: > 100 µM

Q: Another molecule to check: C=C(C)C1CC=C(C)C2(C1)OCC(C)(C)C(C)O2 (stereo unspecified)
Ans: 45.8 µM

Q: // same read-out, input: COc1cc2nc(-c3ccc(C(F)(F)F)cc3)cc(OCCCN3CCCCC3)c2cc1OC
Ans: 10.4 µM

----------
System: NCI-H460 lung
Protocol notes: NCI tumour cell line growth inhibition, 48 h
Where a SMILES comes first, the peptide text is derived from it. The star is where a group is joined. Boc = CC(C)(C)OC(=O)*; OBn = c1ccc(CO*)cc1
The entries below are paired with their reported TGI.

Q: # input compound: Cc1cc(=O)oc2cc(O)ccc12 ; wanted: its TGI
Ans: > 100 µM

Q: Thanks! And O=C1C(Br)=C(c2ccccc2)S(=O)c2ccccc21 (stereo not given) ?
Ans: 40.6 µM

Q: Another compound: CCOC(=O)COS(=O)(=O)C(F)(F)F
Ans: > 100 µM

Q: And CCN1CSC(=S)N(CC)C1 ?
Ans: > 100 µM

Q: What about Oc1ccccc1-c1nc2c3ccccc3c3ccccc3c2[nH]1 ?
Ans: 12.1 µM

Q: Please give the result for CC(=O)O[C@H]1C(=O)[C@@]2(C)[C@H]([C@H](OC(=O)c3ccccc3)[C@]3(O)C[C@H](OC(=O)[C@H](O)[C@@H](NC(=O)CC(C)(C)C)c4ccccc4)C(C)=C1C3(C)C)C1(OC(C)=O)CO[C@@H]1C[C@@H]2O (stereo not given in full) too.
Ans: > 10 µM

Q: Same lookup for COc1cc(C2S/C(=C/c3ccccc3)C(=O)N2c2ccc(Cl)c(Cl)c2)cc(OC)c1OC (stereo not given) , please.
Ans: > 100 µM

Q: Another compound to look at: CC(C)(C)OC(=O)NC(Cc1ccccc1)C(=O)NC(Cc1ccccc1)C(=O)NCC(=O)OCc1ccccc1 (stereo not drawn) (Boc-Phe-Phe-Gly-OBn; configuration not given here)
Ans: 49.9 µM

Q: Now this one: CC(C)(C)NC(=O)[C@H]1C[C@H]2CCCC[C@H]2CN1C[C@@H](O)[C@H](Cc1ccccc1)NC(=O)[C@H](CC(N)=O)NC(=O)c1ccc2ccccc2n1
Ans: > 51.4 µM

Q: What about CCc1c(C)c(C#N)c(=S)n(C2OC(CO)C(O)C(O)C2O)c1C (stereo not given) ?
Ans: > 100 µM

Q: Further, for C=C1C(=O)O[C@H]2C[C@@]3(C)[C@H](O)CCC(=C)[C@@H]3[C@@H](OC(C)=O)[C@H]12 ?
Ans: 25.7 µM

Q: Next record, please: CN=C1SC(=Nc2ccc(N(C)C)cc2)N1C
Ans: > 100 µM

Q: Query C=C1C(=O)OC2/C=C(\C=O)CC/C=C(\C)C(O)C[C@@H]12 (stereo not given in full) next
Ans: 27.4 µM

Q: Another compound to look at: COC1CC(OC(=O)c2ccccc2)C(OC(=O)c2ccccc2)C(C)O1 (stereo not given)
Ans: > 100 µM

Q: COc1ccc(C(=O)N2c3ccccc3Sc3ccccc32)c(C(F)(F)F)c1 , same question.
Ans: > 100 µM
